Tested on: Staphylococcus epidermidis
Assay: Antimicrobial activity against Staphylococcus epidermidis
Type: functional
Peptide text beside a SMILES is read from it.
Readout name: MIC (µM)
Give the value in µM but do not write µM after it.

Exam item: Which measured MIC value corresponds to CC[C@H](C)[C@H](NC(=O)[C@H](CCCCN)NC(=O)[C@H](CCCCN)NC(=O)[C@H](Cc1ccccc1)NC(=O)[C@H](CC(C)C)NC(=O)[C@H](CCCCN)NC(=O)[C@H](Cc1c[nH]c2ccccc12)NC(=O)[C@H](CCCCN)NC(C)=O)C(=O)NCC(=O)N[C@@H](CCCCN)C(=O)N[C@H](C(=O)N[C@@H](CC(C)C)C(=O)N[C@@H](CCCCN)C(=O)N[C@H](C(=O)N[C@@H](CC(C)C)C(N)=O)C(C)C)C(C)C (Ac-KWKLFKKIGKVLKVL-NH2) ?
Marked response: 0.5
